Reported viability, T/C values are given for each entry in this list.
System: 349418-098-R-PDC complex spheroid viability
ASSAY SUMMARY: Anticancer human tumor 349418-098-R-PDC patient-derived lung adenocarcinoma cell line growth inhibition
STUDY CONDITIONS: second compound 3.16 µM; first compound 0.01 µM; hits give low values
Description: Multicellular complex tumor spheroid response to LSD1 Inhibitor Iadademstat in combination with a variety of drugs and investigational agents in selected tumor cell lines The current study was undertaken to assess response to LSD1 inhibitors in combination with standard-of-care drugs and investigational agents in solid tumor complex spheroid models as well as in the K-562 leukemia. […] Compounds. […] If the clinical Cmax for an agent had not been determined, the highest concentration tested was 10 microM. […]
Express your answer in %, writing the number without its unit.

COMPOUND	MEASUREMENT UNITS	viability, T/C
O=C(C=Cn1cnc(-c2cc(C(F)(F)F)cc(C(F)(F)F)c2)n1)NNc1cnccn1 + NC1CCC(NC2CC2c2ccccc2)CC1	%	8.38

Read the next record carefully.
Please provide the recorded viability, T/C for Nc1ncn(C2CC(O)C(CO)O2)c(=O)n1 (configuration not stated) + NC1CCC(NC2CC2c2ccccc2)CC1 , tested on 349418-098-R-PDC complex spheroid viability.
56.7

----------
System: 349418-098-R-PDC complex spheroid viability
ASSAY SUMMARY: Anticancer human tumor 349418-098-R-PDC cell line growth inhibition;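 also: spheroids exposed to agents for seven days before readout; 100% = DMSO vehicle control wells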
STUDY CONDITIONS: second compound 0.316 µM; first compound 0.0316 µM; hits give low values
Excerpt: Multicellular complex tumor spheroid response to LSD1 Inhibitor Iadademstat in combination with a variety of drugs and investigational agents in selected tumor cell lines The current study was undertaken to assess response to LSD1 inhibitors in combination with standard-of-care drugs and investigational agents in solid tumor complex spheroid models as well as in the K-562 leukemia. […] Compounds. […] If the clinical Cmax for an agent had not been determined, the highest concentration tested was 10 microM. […]
ASSAY READOUT: viability, T/C (%)
Express your answer in %, writing the number without its unit.

Solved cases below.
MOLECULE	TARGET ENTITY	ASSAY READOUT	NUMERIC VALUE
CC1COCCN1c1cc(C2(S(C)(=N)=O)CC2)nc(-c2ccnc3[nH]ccc23)n1 (stereo not drawn) + NC1CC1c1ccc(-c2cccc(O)c2)cc1	349418-098-R-PDC complex spheroid viability	viability, T/C	120
Cn1ncnc1C1c2n[nH]c(=O)c3cc(F)cc(c23)NC1c1ccc(F)cc1 (stereo not drawn) + NC1CCC(NC2CC2c2ccccc2)CC1	349418-098-R-PDC complex spheroid viability	viability, T/C	97.6
O=C(c1cc(Cc2n[nH]c(=O)c3ccccc23)ccc1F)N1CCN(C(=O)C2CC2)CC1 + NC1CCC(NC2CC2c2ccccc2)CC1	349418-098-R-PDC complex spheroid viability	viability, T/C	93.8
CC1(C)CCC(CN2CCN(c3ccc(C(=O)NS(=O)(=O)c4ccc(NCC5CCOCC5)c([N+](=O)[O-])c4)c(Oc4cnc5[nH]ccc5c4)c3)CC2)=C(c2ccc(Cl)cc2)C1 + NC1CCC(NC2CC2c2ccccc2)CC1	349418-098-R-PDC complex spheroid viability	viability, T/C	115
Cn1ncnc1C1c2n[nH]c(=O)c3cc(F)cc(c23)NC1c1ccc(F)cc1 (stereo not drawn) + NC1CC1c1ccc(-c2cccc(O)c2)cc1	349418-098-R-PDC complex spheroid viability	viability, T/C	106

Name the recorded viability, T/C for CC1COCCN1c1cc(C2(S(C)(=N)=O)CC2)nc(-c2ccnc3[nH]ccc23)n1 (stereo not drawn) + NC1CCC(NC2CC2c2ccccc2)CC1 .
120

Name the recorded viability, T/C for O=C(C=Cn1cnc(-c2cc(C(F)(F)F)cc(C(F)(F)F)c2)n1)NNc1cnccn1 + NC1CCC(NC2CC2c2ccccc2)CC1 .
6.85
